- Test system: HCT116 wild-type cells
- ASSAY EXPLANATION: Cell proliferation inhibition (CellTiter-Glo), HCT116 wild-type cells
- Type: cell-based
- MEASUREMENT SETUP: Homo sapiens, HCT-116, read-out: HCT116 IC50
OUTCOME MEASURE: IC50 (nM)
Answers are plain numbers, in nM.

>  <MOLECULE>
CC1OCc2c1c(N)nc1cc3c(cc21)C(=O)N(Cc1ccc(-c2c(F)cccc2F)cn1)CCCNC3 (stereo not shown) [Example 435]

>  <REPORTED VALUE>
78

$$$$
>  <MOLECULE>
Nc1nc2cc3c(cc2c2c1COC2)C(=O)N(Cc1ccc(C(F)(F)F)cn1)CCCOC3 [Example 178]

>  <REPORTED VALUE>
2380

$$$$

List the reported IC50 of each molecule below.
1. C[C@H]1CCCN(Cc2ccc(C(F)(F)F)cn2)C(=O)c2cc3c(cc2C1)nc(N)c1cncn13 [Example 514-P2]
2. Nc1nc2cc3c(cc2c2c1COC2)C(=O)N(Cc1ccc(-c2c(F)cccc2F)cn1)CCCOC3 [Example 431]
3. Nc1nc2cc3c(cc2c2c1COC2)C(=O)N(Cc1ccc(C24CC(C2)C4)cn1)CCCOC3 [Example 510]

A.
1. 1000
2. 200
3. 771

List the reported IC50 of each molecule below.
1. CC1OCc2c1c(N)nc1cc3c(cc21)C(=O)N(Cc1ccc(C(F)(F)F)cn1)CCCOC3 (stereo not shown) [Example 184]
2. CC1OCc2c1c(N)nc1cc3c(cc21)C(=O)N(Cc1ccc(S(F)(F)(F)(F)F)cn1)CCCOC3 (racemic) [Example 437]

A.
1: 2290; 2: 191

----------
- ASSAY EXPLANATION: Pharmacokinetics in rats (plasma) after oral administration
- Format: in vivo
- MEASUREMENT SETUP: rat, po, SD rats, p.o. 5 mg/kg
OUTCOME MEASURE: half-life (h)
Give bare numbers, in h.

>  <COMPOUND>
Nc1nc2cc3c(cc2c2c1COC2)C(=O)N(Cc1ccc(S(F)(F)(F)(F)F)cn1)CCCOC3 [Example 434]

>  <half-life [h]>
3.1

$$$$
>  <COMPOUND>
Nc1nc2cc3c(cc2c2c1COC2)C(=O)N(Cc1ccc(C(F)(F)F)cn1)CCCOC3 [Example 178]

>  <half-life [h]>
1.9

$$$$

Note: attention shifts to another entry.
Q. Which half-life reading was recorded for the compound Nc1nc2cc3c(cc2c2c1COC2)C(=O)N(Cc1ccc(C(F)(F)F)cn1)CC/C=C\3 [Example 638] ?
A. 1.8

----------
Kindly supply the reported ΔTm at 8 µM values for the records listed here.
- TEST SYSTEM: PRMT5/MEP50-MTA protein complex (Homo sapiens)
- Construct: purchased Viva Biotech
- Sequence (O14744 whole entry): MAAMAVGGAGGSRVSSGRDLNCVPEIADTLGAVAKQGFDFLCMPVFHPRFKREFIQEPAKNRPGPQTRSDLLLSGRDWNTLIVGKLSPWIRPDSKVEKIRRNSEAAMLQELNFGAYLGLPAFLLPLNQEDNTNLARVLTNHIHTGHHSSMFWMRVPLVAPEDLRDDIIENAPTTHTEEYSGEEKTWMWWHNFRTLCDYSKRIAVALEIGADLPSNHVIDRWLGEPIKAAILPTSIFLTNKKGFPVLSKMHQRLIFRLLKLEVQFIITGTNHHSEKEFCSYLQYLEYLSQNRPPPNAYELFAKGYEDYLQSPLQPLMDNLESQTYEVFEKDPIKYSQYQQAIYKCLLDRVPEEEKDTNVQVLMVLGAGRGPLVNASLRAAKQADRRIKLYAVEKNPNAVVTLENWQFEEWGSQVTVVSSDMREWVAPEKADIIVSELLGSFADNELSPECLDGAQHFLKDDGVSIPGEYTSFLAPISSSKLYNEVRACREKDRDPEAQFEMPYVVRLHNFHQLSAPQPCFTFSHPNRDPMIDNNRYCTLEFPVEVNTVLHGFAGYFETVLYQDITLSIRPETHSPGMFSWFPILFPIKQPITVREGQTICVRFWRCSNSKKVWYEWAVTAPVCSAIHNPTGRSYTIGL
- Sequence (Q9BQA1 whole entry partner): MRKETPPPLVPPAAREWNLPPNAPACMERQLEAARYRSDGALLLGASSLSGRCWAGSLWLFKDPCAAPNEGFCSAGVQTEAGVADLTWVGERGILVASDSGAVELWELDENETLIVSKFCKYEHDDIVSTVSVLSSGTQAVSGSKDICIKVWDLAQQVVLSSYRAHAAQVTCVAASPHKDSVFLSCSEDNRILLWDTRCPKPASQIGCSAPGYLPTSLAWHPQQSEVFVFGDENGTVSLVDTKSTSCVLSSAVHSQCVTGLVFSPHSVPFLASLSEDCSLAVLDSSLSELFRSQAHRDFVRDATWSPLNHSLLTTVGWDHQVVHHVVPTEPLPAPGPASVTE
- ASSAY EXPLANATION: Thermal shift assay: thermal stability (melting temperature) of PRMT5/MEP50-MTA protein complex
- Format: binding
- MEASUREMENT SETUP: final compound concentration 8 µM; 2 µM PRMT5/MEP50, 2 µM MTA; Tm minus Tm of DMSO vehicle control
- Text: Test Example 1: Determination of the ability of the compounds of the present invention to improve the thermal stability (melting temperature) of the PRMT5/MEP50-MTA protein complex. 1 Experimental objective: The objective of this test example is to determine the ability of the compound to improve the thermal stability of the PRMT5/MEP50-MTA protein complex, resulting in an increase in the protein melting temperature. […]
Give bare numbers, in °C.

List the reported ΔTm at 8 µM of each molecule below.
1. CC1OCc2c1c(N)nc1cc3c(cc21)C(=O)N(Cc1ccc(C(F)(F)F)cn1)CCCOC3 (centres unmarked)
2. Nc1nc2cc3c(cc2n2cncc12)C(=O)N(C1COCc2cc(C(F)(F)F)ccc21)CCC/C=C\3 (centres unmarked)
3. Nc1nc2cc3c(cc2n2cncc12)C(=O)N(Cc1ccc(S(F)(F)(F)(F)F)cn1)CCCOC3
4. C[C@@H]1CCCN(Cc2ccc(C(F)(F)F)cn2)C(=O)c2cc3c(cc2C1)nc(N)c1cncn13 [Example 514-P1]

A.
[11.1, 12.3, 12.3, 11.3]

----------
Kindly supply the reported AUC(0-inf) values for the records listed here.
- ASSAY EXPLANATION: Pharmacokinetics in rats (plasma) after oral administration
- Type: in vivo
- MEASUREMENT SETUP: male, rat, po, SD rats, p.o. 5 mg/kg
Give bare numbers, in ng·h/mL.

Look over these answered cases.
>  <MOLECULE>
Nc1nc2cc3c(cc2n2cncc12)C(=O)N(C1COCc2nc(C(F)(F)F)ccc21)CCC/C=C\3 (centres unmarked) [Example 158]

>  <REPORTED VALUE>
712

$$$$
>  <MOLECULE>
Nc1nc2cc3c(cc2n2cncc12)C(=O)N(C1COCc2nc(C(F)(F)F)ccc21)CCCC/C=C\3 (single isomer, unassigned) [Example 62-P1]

>  <REPORTED VALUE>
800

$$$$
>  <MOLECULE>
Nc1nc2cc3c(cc2n2cncc12)C(=O)N(Cc1ccc(C(F)(F)F)cn1)CC/C=C\3 [Example 416]

>  <REPORTED VALUE>
1520

$$$$
>  <MOLECULE>
Nc1nc2cc3c(cc2c2c1COC2)C(=O)N(C1COCc2nc(C(F)(F)F)ccc21)CCC/C=C\3 (single isomer, unassigned) [Example 165-P1]

>  <REPORTED VALUE>
999

$$$$

Note: attention shifts to another entry.
Q. Which AUC(0-inf) reading was recorded for the molecule Nc1nc2cc3c(cc2n2cncc12)C(=O)N(Cc1ccc(S(F)(F)(F)(F)F)cn1)CCCOC3 [Example 414] ?
A. 949

----------
- ASSAY EXPLANATION: Pharmacokinetics in rats (plasma) after oral administration
- Type: in vivo
- MEASUREMENT SETUP: rat, po, SD rats, p.o. 5 mg/kg, read-out: Cmax
Kindly supply the reported Cmax values for the records listed here.
One number for each entry, in ng/mL.

>  <COMPOUND>
Nc1nc2cc3c(cc2c2c1COC2)C(=O)N(Cc1ccc(S(F)(F)(F)(F)F)cn1)CCCOC3

>  <U>
ng/mL

>  <REPORTED VALUE>
273

$$$$
>  <COMPOUND>
Nc1nc2cc3c(cc2c2c1COC2)C(=O)N(Cc1ccc(C(F)(F)F)cn1)CCCOC3

>  <U>
ng/mL

>  <REPORTED VALUE>
544

$$$$

Note: attention shifts to another entry.
Q. Which Cmax reading was recorded for the molecule `Nc1nc2cc3c(cc2c2c1COC2)C(=O)N(Cc1ccc(C(F)(F)F)cn1)CC/C=C\3` ?
A. 241

----------
- ASSAY EXPLANATION: Pharmacokinetics in rats (plasma) after oral administration
- Format: in vivo
- MEASUREMENT SETUP: rat, in vivo, po, SD rats, p.o. 5 mg/kg
Kindly supply the reported AUC(0-inf) values for the records listed here.
One number for each entry, in ng·h/mL.

Look over these answered cases.
>  <COMPOUND>
Nc1nc2cc3c(cc2n2cncc12)C(=O)N(C1COc2cc(C(F)(F)F)ccc21)CCC/C=C\3 (racemic)

>  <AUC(0-inf) (ng·h/mL)>
2520

$$$$
>  <COMPOUND>
Nc1nc2cc3c(cc2n2cncc12)C(=O)N([C@@H]1COCc2nc(C(F)(F)F)ccc21)CC/C=C\3 (single isomer, unassigned) [Example 311-P1]

>  <AUC(0-inf) (ng·h/mL)>
1780

$$$$

Q. Which AUC(0-inf) reading was recorded for the compound C[C@H]1OCc2c1c(N)nc1cc3c(cc21)C(=O)N(Cc1ccc(S(F)(F)(F)(F)F)cn1)CCCOC3 [Example 437-P1] ?
A. 2050

----------
Kindly supply the reported IC50 values for the records listed here.
- Test system: HCT116 wild-type cells
- ASSAY EXPLANATION: Cell proliferation inhibition (CellTiter-Glo), HCT116 wild-type cells
- Assay type: cell-based
- MEASUREMENT SETUP: Homo sapiens, HCT-116, read-out: HCT116 IC50

Look over these answered cases.
>  <COMPOUND>
Cn1ncc2c(N)nc3cc4c(cc3c21)C(=O)N(Cc1ccc(C(F)(F)F)cn1)CCCOC4

>  <OUTCOME MEASURE>
IC50

>  <REPORTED VALUE>
763 nM

$$$$
>  <COMPOUND>
Nc1nc2cc3c(cc2n2cncc12)C(=O)N(Cc1ccc(C(F)(F)F)nn1)CC/C=C\3

>  <OUTCOME MEASURE>
IC50

>  <REPORTED VALUE>
1090 nM

$$$$

Note: attention shifts to another entry.
Q. Which IC50 reading was recorded for the compound CC1CCN(Cc2ccc(C(F)(F)F)cn2)C(=O)c2cc3c(cc2CO1)nc(N)c1cncn13 (stereo not drawn) ?
A. 1510 nM
